- Test system: SW-620 colon
- experimentalDetails: NCI-60 one-dose screen, 48 h (100 = growth as untreated, 0 = no growth, -100 = all killed)
- measurementParameters: 10 µM unless noted
The panel holds about 83,000 compounds, 20% with a hit somewhere; the sample as a whole holds those more often. Active and inactive are the calls of the source. The calls were made as follows: active = growth percent below 10; inactive = the rest.
testReadout: growth

{"columns": ["compound", "result"],
 "data": [
  ["c1cc2ccc3cc2cc1CNCCOCCNCc1ccc2ccc(cc2c1)CNCCOCCNC3", "2.45% (active)"],
  ["COc1ccc(NC(=O)c2nc(-c3cc(OC)c(OC)c(OC)c3)n(-c3cccc4ccccc34)n2)cc1OC", "61.5% (inactive)"],
  ["O=C(N=c1oc2ccccc2cc1-c1cc2ccccc2[nH]1)c1ccc(Cl)cc1", "25.1% (inactive)"],
  ["Cc1c(C(=O)NC(Cc2ccccc2)C(O)C(=O)NCc2ccc(F)cc2)[nH]c2ccccc2c1=O (centres undefined)", "114% (inactive)"],
  ["CN(C)c1ccc(/C=C/C(=O)c2cccc(Nc3nc(Nc4ccccc4)nc(Nc4ccccc4)n3)c2)cc1", "103% (inactive)"],
  ["O=C1/C(=C/c2ccc(F)cc2)C=C(c2ccccc2)N1CCc1ccccc1", "70% (inactive)"],
  ["CC(C)(C)C(CCc1ccc(Cl)cc1)N1CCN(C2CCCCC2)CC1 (centres undefined)", "35% (inactive)"],
  ["Cc1ccc(C(=O)COc2cccc(/C=C3\\Oc4ccccc4C3=O)c2)cc1", "123% (inactive)"],
  ["CS(=O)c1cccc(-c2ccc3nc(N)n(-c4ccc(C(F)(F)F)cc4)c(=O)c3c2)c1 (centres undefined)", "103% (inactive)"]
]}

* * *

- Test system: OVCAR-4 ovarian
- experimentalDetails: NCI-60 one-dose screen, 48 h
- measurementParameters: 10 µM unless noted
About 83,000 compounds went through this panel and 20% of them were active in at least one assay; those are over-represented in the sample as a whole. The source made the active and inactive calls. The calls were made as follows: active = growth percent below 10; inactive = the rest.
Outcomes: active, inactive

{"columns": ["compound", "measuredTarget", "qualitativeLabel"],
 "data": [
  ["CN(c1ccccc1)c1ccc2c(c1)OCCC21CC1Nc1cnccc1C(=O)O (stereo not drawn)", "OVCAR-4 ovarian", "inactive"],
  ["C=CCn1c(C)nc2cc(Nc3nc(N4CCCC4)nc4ccccc34)ccc21", "OVCAR-4 ovarian", "inactive"],
  ["O=C(Nc1cccc(Oc2nnc(Cl)c3ccccc23)c1)Nc1ccc(Cl)c(C(F)(F)F)c1", "OVCAR-4 ovarian", "active"],
  ["Cc1ccc(S(=O)(=O)NCC[C@@H]2C[C@H]2c2cc3ccccc3s2)cc1", "OVCAR-4 ovarian", "inactive"],
  ["COc1ccc2c(c1)O/C(=C/c1ccc(OCC(=O)c3ccccc3)cc1)C2=O", "OVCAR-4 ovarian", "inactive"],
  ["Cc1ccc(Nc2nc(N)nc(CSCC(=O)NN)n2)cc1", "OVCAR-4 ovarian", "inactive"],
  ["O=C1CCc2c(sc3[nH]c(=S)n(-c4ccc(OC(F)(F)F)cc4)c(=O)c23)C1", "OVCAR-4 ovarian", "inactive"],
  ["COc1ccc2c(c1)CCCN2c1c2ccccc2nc2ccccc12", "OVCAR-4 ovarian", "inactive"],
  ["Cc1occc1-c1n[nH]c(=S)n1N1C(=O)CSC1=S", "OVCAR-4 ovarian", "inactive"],
  ["COc1ccc(C2CC(c3cccc(OC)c3)=NN2C(=O)c2cc(OC)c(OC)c(OC)c2)cc1 (stereo not drawn)", "OVCAR-4 ovarian", "inactive"],
  ["Cc1cc(NCc2cc(Nc3ccnc4cc(Cl)ccc34)ccc2F)nc(N2CCCC2)n1", "OVCAR-4 ovarian", "active"],
  ["CCCCCCCCCCCC(c1ccccc1)[N+](C)(C)C (stereo not drawn)", "OVCAR-4 ovarian", "active"],
  ["COc1ccc(C2=Nc3c(N)ncnc3NC(c3ccc4c(c3)OCO4)C2)cc1 (stereo not drawn)", "OVCAR-4 ovarian", "inactive"],
  ["CC1(C)CC(=O)CC2(C1)N=C(N)Nc1nc3ccccc3n12 (stereo not drawn)", "OVCAR-4 ovarian", "inactive"],
  ["Cc1cccc(-c2nc(N(C)c3ccc4ncsc4c3)c3ccccc3n2)n1", "OVCAR-4 ovarian", "inactive"],
  ["COc1cc(C(=O)/C=C/c2c(C(F)(F)F)nc3sccn23)cc(OC)c1OC", "OVCAR-4 ovarian", "inactive"],
  ["C=CC(=O)Nc1cccc(Oc2nccc(Nc3nnc(C4CC4)s3)n2)c1", "OVCAR-4 ovarian", "inactive"],
  ["Cc1ccc(NCCN(C)C)c2c(=O)c3ccccc3sc12", "OVCAR-4 ovarian", "inactive"],
  ["O=C1NC(=Nc2ccc(Cl)cc2)S/C1=C\\c1cn(-c2ccccc2)nc1-c1ccccc1", "OVCAR-4 ovarian", "active"],
  ["CCCCC1CCCCN1C(=O)OCC (stereo not drawn)", "OVCAR-4 ovarian", "inactive"],
  ["CNc1ccc(NC)c2c1C(=O)c1ccccc1C2=O", "OVCAR-4 ovarian", "inactive"],
  ["Cc1cc(O)c(C2=NN(c3ccc(S(N)(=O)=O)cc3)C(c3ccccc3Cl)C2)cc1Cl (stereo not drawn)", "OVCAR-4 ovarian", "inactive"],
  ["N/C(=N\\c1nc2ccccc2s1)NC(=O)Nc1cccc(Cl)c1", "OVCAR-4 ovarian", "inactive"],
  ["COc1cccc(Nc2nccc(Nc3ccc4[nH]ncc4c3)n2)c1", "OVCAR-4 ovarian", "active"],
  ["CCCCCS(=O)(=O)Nc1ccc(C(=O)O)cc1", "OVCAR-4 ovarian", "inactive"],
  ["O=S(=O)(O)c1ccc(N/N=C/c2ccccc2Cl)cc1", "OVCAR-4 ovarian", "inactive"],
  ["CC1CC(C(C)(C)C)C(=O)C(C(C)(C)C)C1 (stereo not drawn)", "OVCAR-4 ovarian", "inactive"],
  ["CC/C=C\\CCC/C=C1/C(=O)C=C[C@@H]1C/C=C\\CCCC(=O)O", "OVCAR-4 ovarian", "inactive"],
  ["C[C@@H]1N=C(c2ccc3ccccc3n2)Nc2nc3ccccn3c2C1=O", "OVCAR-4 ovarian", "inactive"],
  ["COc1ccc2occ(C3=C(c4c[nH]c5ccccc45)C(=O)N(O)C3=O)c2c1", "OVCAR-4 ovarian", "inactive"],
  ["O=c1[nH][n+](-c2ccc(Cl)cc2)no1", "OVCAR-4 ovarian", "inactive"],
  ["COC(=O)[C@]12CC[C@@H](C)[C@H](C)[C@@H]1C1=CC[C@@H]3[C@@]4(C)C(C=O)=C[C@@](C)(COC(C)=O)[C@@H]4C(=O)C[C@@]3(C)[C@]1(C)CC2", "OVCAR-4 ovarian", "inactive"],
  ["N#Cc1c(-c2cccc(Cl)c2)cc(-c2cccc(F)c2)[nH]c1=O", "OVCAR-4 ovarian", "inactive"],
  ["CC(C)Sc1nc(NNC(N)=S)c(C#N)c(-c2ccc(F)cc2)n1", "OVCAR-4 ovarian", "inactive"],
  ["O=C(NCCc1ccc(O)c(O)c1)C12CC3CC(CC(C3)C1)C2", "OVCAR-4 ovarian", "inactive"],
  ["CCCCn1c(=O)c2c(nc3n2CCCN3CCc2ccc(OCC(=O)NCCN(CC)CC)cc2)n(CCCC)c1=O", "OVCAR-4 ovarian", "inactive"],
  ["COc1ccc(-c2nc(SCCC(C)C)nc(N/N=C\\c3cccc(Cl)c3)c2C#N)cc1", "OVCAR-4 ovarian", "active"],
  ["Cc1cc(Cl)ccc1Nc1nc(C(F)(F)F)ccc1C(=O)N/N=C/c1ccc(N(C)C)cc1", "OVCAR-4 ovarian", "inactive"],
  ["COc1cc(C(=O)/C=C/c2c(-c3ccc(F)cc3)nc3sc(C)cn23)cc(OC)c1OC", "OVCAR-4 ovarian", "inactive"],
  ["C#CCOc1nc(C)cc(C)c1C#N", "OVCAR-4 ovarian", "inactive"],
  ["Cc1nc2c(c(N3CCCc4ccccc43)n1)CCC2", "OVCAR-4 ovarian", "inactive"],
  ["C=CCn1c(C)nc2cc(Nc3nc(Cl)nc4ccccc34)ccc21", "OVCAR-4 ovarian", "inactive"],
  ["CN(C)CC1=NC2SC=C(c3ccccc3)C2C(=O)N1CC#N (stereo not drawn)", "OVCAR-4 ovarian", "inactive"]
]}

* * *

The following compounds are listed with their measured growth values.
- System: K-562 leukemia
- experimentalDetails: NCI-60 one-dose screen, 48 h (100 = growth as untreated, 0 = no growth, -100 = all killed)
- measurementParameters: 10 µM unless noted
The panel holds about 83,000 compounds, 20% with a hit somewhere; the sample as a whole holds those more often.

{"columns": ["compound", "growth [%]"],
 "data": [
  ["COc1ccc(C2C(c3nn[nH]n3)=C(N)Oc3c2ccc2ccccc32)cc1 (stereo not given)", 19.2],
  ["COc1ccc(C(=O)/C=C/c2c(C(F)(F)F)nc3sccn23)cc1OC", -15.1],
  ["CC(CCc1ccc(Cl)c(Cl)c1)NCc1ccc(C(C)(C)C)cc1 (stereo not given)", 25.2],
  ["CCN(CC)c1ccc(C(=O)c2ccc(N(CC)CC)cc2)cc1", 14.7],
  ["COc1cccc(-c2nn(-c3ccccc3)cc2-c2ccnc(NCCNC(=O)Nc3cccc(C(F)(F)F)c3)c2)c1", 2.52],
  ["N#Cc1c(-c2ccccn2)[nH]c(=S)[nH]c1=O", 97],
  ["O=C(N/N=C/c1ccncc1)c1ccc(C(F)(F)F)nc1Nc1cccc(C(F)(F)F)c1", 13.9],
  ["COc1cc(/C=C/C(=O)c2c(C)nc3ccccc3c2C)ccc1OCCCN1CCN(C(=O)c2ccco2)CC1", 59.7],
  ["CC1=NOC(=O)/C1=C\\c1ccc(O)cc1", 98.2],
  ["S=C(Cc1ccc2c(c1)CCCC2)N1CCOCC1", 107]
]}

The measurements presented in this section are drawn from PubChem BioAssay (NCI).
